- experimental_protocol: chemical genetic growth profiling, strain panel (AID 1159580);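 also: tested at 20 µM; growth read once vehicle control cultures reached saturation at 30 °C; 1 = growth at the plate median or of vehicle wells; lower values mean less growth of the strain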
- setup_conditions: S. cerevisiae deletion strains, growth OD, locus YPL051W, strain arl3
The campaign covered roughly 5,500 compounds. About 2,000 (36%) were called active. Another 18% or so got no clear call; they are omitted. Rule as the data show it: active = normalized growth mostly below about 0.91 (no sharp cut-off); inconclusive = no clear call, values can overlap the other calls; inactive = mostly above about 0.92. This is one part of the list.
Log the outcome using a class from label 1 = active, label 0 = inactive

Worked set:
- compound: "Nc1ccc(N=Nc2ccccc2)c(N)n1"
  classification: "label 1"
- compound: "Cc1c(S(=O)(=O)O)oc2c1C(=O)C(=O)c1c-2ccc2c1CCCC2(C)C"
  classification: "label 1"
- compound: "OCc1ccccc1O"
  classification: "label 0"
- compound: "C#CCCCCCCCCCCCC(O)CC(O)COC(C)=O (stereo unspecified)"
  classification: "label 1"

Could you kindly confirm the outcome this assay logged for "CC(=O)OCC[C@H](C)CCC=C(C)C" ?
label 0

Could you kindly confirm the outcome this assay logged for "O=C1OC(c2ccc(O)cc2)(c2ccc(O)cc2)c2ccccc21" ?
label 0

Could you kindly confirm the outcome this assay logged for C=CC(N)CCC(=O)O (stereo unspecified) ?
label 0

Could you kindly confirm the outcome this assay logged for CC1C[C@H]2CC(=O)[C@H]3CCCN4CCC[C@H]2[C@]34C1 (stereo partly specified) ?
label 0

Could you kindly confirm the outcome this assay logged for "CCCCC(=O)Oc1ccccc1C(=O)O" ?
label 0

Could you kindly confirm the outcome this assay logged for C=C1CCC2C(CC2(C)C)C(=O)CCC1O (stereo unspecified) ?
label 0

----------
- experimental_protocol: chemical genetic growth profiling, strain panel (AID 1159580);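 also: tested at 20 µM; growth read once vehicle control cultures reached saturation at 30 °C; 1 = growth at the plate median or of vehicle wells; lower values mean less growth of the strain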
- setup_conditions: S. cerevisiae deletion strains, growth OD, locus YHR129C, strain ARP1, stronger effect = lower value
Hit rate of the full screen: of about 5,500 compounds, about 2,000 (36%) were called active. Roughly 18% stayed inconclusive and do not appear here. The list shows a part of the results.
metric: normalized growth

The following compounds have reported results that may help.
- compound: "C=C1C(C)C2C(Cc3ccccc3)NC(=O)C23OC(=O)/C=C/C(=O)CCCC(C)C/C=C/C3C1O (stereo not given)"
  normalized growth: "0.972 (inactive)"
- compound: "C=C1C(C)C2C(Cc3ccccc3)NC(=O)C23OC(=O)/C=C/C(O)CCCC(C)C/C=C/C3C1O (stereo not given)"
  normalized growth: "0.998 (inactive)"
- compound: "CC1(C)O[C@H]2[C@H](O)C[C@](O)(C(N)=O)C[C@H]2O1"
  normalized growth: "1.04 (inactive)"
- compound: "NS(=O)(=O)c1cc2c(cc1Cl)NC(C(Cl)Cl)NS2(=O)=O (stereo not given)"
  normalized growth: "0.993 (inactive)"

# input for lookup
Quick one: normalized growth of "COC(=O)C1=CCCN(C)C1" ?
0.993 (inactive)

----------
Let's look at some molecules and their measured normalized growth.
- experimental_protocol: chemical genetic growth profiling, strain panel (AID 1159580);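 also: tested at 20 µM; growth read once vehicle control cultures reached saturation at 30 °C; 1 = growth at the plate median or of vehicle wells; lower values mean less growth of the strain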
- setup_conditions: S. cerevisiae deletion strains, growth OD, locus YGR252W, strain gcn5, stronger effect = lower value
Among all 5,500 compounds or so, about 2,000 (36%) were called active. Inconclusive results (about 18%) are left out. This is one part of the list.
Could you keep your reply to the number by itself?

The following molecules have reported results that may help.
- molecule: "C=C1C(C)C2C(Cc3ccccc3)NC(=O)C23OC(=O)/C=C/C(O)CCCC(C)C/C=C/C3C1O (stereo not given)"
  reported_value: 1
- molecule: "O=C1[C@H](CCC(O)c2ccc(F)cc2)[C@@H](c2ccc(O)cc2)N1c1ccc(F)cc1 (stereo not given in full)"
  reported_value: 1.01
- molecule: "COc1cc(-c2coc3cc(OCc4ccccc4)c(OC)c(O)c3c2=O)cc(OCc2ccccc2)c1OC"
  reported_value: 1.07
- molecule: "Cc1cc(NC(=O)C2=C(O)c3ccccc3S(=O)(=O)N2C)no1"
  reported_value: 0.998
- molecule: "Nc1ccn(C2O[C@H](CO)[C@@H](O)[C@@H]2O)c(=O)n1 (stereo not given in full)"
  reported_value: 1
- molecule: "CC[C@H](C)C(=O)O[C@H]1C[C@@H](C)C=C2C=C[C@H](C)[C@H](CC[C@@H]3C[C@@H](O)CC(=O)O3)[C@H]21"
  reported_value: 0.878

# input for lookup
Quick one: normalized growth of C#CCCCCCCCCCCCC(O)CC(O)CO (stereo not given) ?
0.993
